- Study system: PHKG2 (Homo sapiens)
- Construct: endogenous in cells
- Sequence (P15735 1-406): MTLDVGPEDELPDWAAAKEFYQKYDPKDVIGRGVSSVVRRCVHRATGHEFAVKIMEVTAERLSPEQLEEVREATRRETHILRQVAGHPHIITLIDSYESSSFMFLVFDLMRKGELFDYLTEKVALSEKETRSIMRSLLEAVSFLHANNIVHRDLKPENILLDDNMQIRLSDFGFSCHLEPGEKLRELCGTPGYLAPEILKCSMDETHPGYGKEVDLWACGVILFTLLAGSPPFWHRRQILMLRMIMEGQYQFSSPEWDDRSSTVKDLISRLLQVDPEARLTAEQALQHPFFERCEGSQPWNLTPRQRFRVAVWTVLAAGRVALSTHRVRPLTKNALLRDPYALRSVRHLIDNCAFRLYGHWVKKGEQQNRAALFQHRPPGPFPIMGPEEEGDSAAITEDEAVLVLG
- Assay comment: KAM-matrix competition in K562 lysate
- Condition info: read-out: RB50 (the source's name)
Measured metric: IC50 (nM)
Give your result in nM as a bare value.

Lookup: # return IC50 of N#CCc1ccc(Nc2nc(NCCCN)cc(Nc3cc(C4CC4)[nH]n3)n2)cc1 [KAM] (system: PHKG2 (Homo sapiens))
Found: 338

---

- Study system: EEF2K (Homo sapiens)
- Construct: endogenous in cells; host or cells: K562 lysate
- Sequence (O00418 whole entry): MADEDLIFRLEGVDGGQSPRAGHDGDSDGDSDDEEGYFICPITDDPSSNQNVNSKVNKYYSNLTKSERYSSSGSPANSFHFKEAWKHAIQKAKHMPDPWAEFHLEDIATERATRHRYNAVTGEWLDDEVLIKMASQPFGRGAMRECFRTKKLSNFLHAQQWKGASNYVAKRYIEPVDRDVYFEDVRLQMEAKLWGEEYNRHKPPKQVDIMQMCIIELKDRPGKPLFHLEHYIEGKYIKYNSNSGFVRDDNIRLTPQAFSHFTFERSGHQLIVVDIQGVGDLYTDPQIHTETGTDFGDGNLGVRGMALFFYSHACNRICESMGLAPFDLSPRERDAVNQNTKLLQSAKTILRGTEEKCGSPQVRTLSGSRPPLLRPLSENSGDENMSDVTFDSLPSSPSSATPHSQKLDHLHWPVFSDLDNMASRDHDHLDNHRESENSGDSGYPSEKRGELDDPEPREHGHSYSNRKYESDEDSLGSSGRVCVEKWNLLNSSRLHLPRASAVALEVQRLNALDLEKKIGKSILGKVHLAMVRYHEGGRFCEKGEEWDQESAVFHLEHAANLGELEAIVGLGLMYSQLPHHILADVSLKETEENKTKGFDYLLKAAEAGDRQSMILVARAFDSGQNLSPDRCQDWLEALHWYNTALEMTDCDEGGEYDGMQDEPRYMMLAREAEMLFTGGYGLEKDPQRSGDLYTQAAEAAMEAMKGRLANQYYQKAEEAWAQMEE
- Assay comment: Imatinib-matrix competition in K562 lysate
- Assay type: binding
- Condition info: read-out: RB50 (the source's name)
Measured metric: IC50

Lookup: Give the value of IC50 reported for the following: `Cc1ccc(NC(=O)c2ccc(CN3CCN(C)CC3)cc2)cc1Nc1nccc(-c2cccnc2)n1`
Found: > 10 µM

---

- Study system: EEF2K (Homo sapiens)
- Construct: endogenous in cells; host or cells: K562 lysate
- Assay comment: KAM-matrix competition in K562 lysate
- Format: binding
- Condition info: KAM 0.001-10 uM, read-out: RB50 (the source's name)
Measured metric: IC50

Lookup: Give the value of IC50 reported for the following: `N#CCc1ccc(Nc2nc(NCCCN)cc(Nc3cc(C4CC4)[nH]n3)n2)cc1`
Found: > 10 µM

---

- Study system: PBK (Homo sapiens, UniProt Q96KB5)
- Construct: endogenous in cells; host or cells: K562
- Sequence (Q96KB5 whole entry): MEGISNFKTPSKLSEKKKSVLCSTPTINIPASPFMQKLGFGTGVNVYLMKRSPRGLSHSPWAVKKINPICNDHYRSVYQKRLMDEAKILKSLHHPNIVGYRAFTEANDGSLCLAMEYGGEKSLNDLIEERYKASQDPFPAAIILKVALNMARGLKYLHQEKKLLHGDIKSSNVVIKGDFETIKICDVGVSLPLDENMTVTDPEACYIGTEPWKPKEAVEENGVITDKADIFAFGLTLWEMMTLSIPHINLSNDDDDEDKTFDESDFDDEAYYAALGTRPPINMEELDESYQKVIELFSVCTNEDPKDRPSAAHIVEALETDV
- Assay comment: KAM-matrix competition in K562 lysate
- Type: binding
- Condition info: KAM 0.001-10 uM, read-out: RB50 (the source's name)
Measured metric: IC50

Lookup: Give the value of IC50 reported for the following: `N#CCc1ccc(Nc2nc(NCCCN)cc(Nc3cc(C4CC4)[nH]n3)n2)cc1`
Found: > 10 µM

---

- Study system: PTK2B (Homo sapiens)
- Construct: endogenous in cells
- Sequence (Q14289 whole entry): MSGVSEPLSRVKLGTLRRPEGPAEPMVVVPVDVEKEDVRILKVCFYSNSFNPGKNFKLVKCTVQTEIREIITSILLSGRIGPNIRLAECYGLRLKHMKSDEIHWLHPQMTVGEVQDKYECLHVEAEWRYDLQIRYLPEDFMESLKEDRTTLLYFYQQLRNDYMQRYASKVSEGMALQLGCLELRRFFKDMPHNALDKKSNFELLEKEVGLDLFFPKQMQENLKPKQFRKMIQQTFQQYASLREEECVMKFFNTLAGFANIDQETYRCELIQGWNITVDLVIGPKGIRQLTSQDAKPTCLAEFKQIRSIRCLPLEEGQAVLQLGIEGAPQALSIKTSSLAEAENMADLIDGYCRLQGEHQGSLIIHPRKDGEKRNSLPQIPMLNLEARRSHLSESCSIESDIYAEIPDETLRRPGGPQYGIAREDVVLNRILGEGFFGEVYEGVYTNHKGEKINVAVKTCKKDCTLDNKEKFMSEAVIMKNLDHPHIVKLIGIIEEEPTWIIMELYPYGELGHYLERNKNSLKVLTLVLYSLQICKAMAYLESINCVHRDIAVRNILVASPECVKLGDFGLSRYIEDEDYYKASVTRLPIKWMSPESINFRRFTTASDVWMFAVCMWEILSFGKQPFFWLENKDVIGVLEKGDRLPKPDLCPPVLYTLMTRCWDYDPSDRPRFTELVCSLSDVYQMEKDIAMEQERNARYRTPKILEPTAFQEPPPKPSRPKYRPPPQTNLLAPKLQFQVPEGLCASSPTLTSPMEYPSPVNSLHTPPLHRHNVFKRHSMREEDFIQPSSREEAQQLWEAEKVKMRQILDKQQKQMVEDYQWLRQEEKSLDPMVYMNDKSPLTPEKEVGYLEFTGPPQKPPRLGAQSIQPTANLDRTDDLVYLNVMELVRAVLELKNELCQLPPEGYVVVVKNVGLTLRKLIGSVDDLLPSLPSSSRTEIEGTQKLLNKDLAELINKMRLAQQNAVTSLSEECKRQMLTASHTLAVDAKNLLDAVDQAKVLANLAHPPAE
- Assay comment: KAM-matrix competition in K562 lysate
- Condition info: read-out: RB50 (the source's name)
Measured metric: IC50 (nM)
Give your result in nM as a bare value.

Lookup: # return IC50 of `N#CCc1ccc(Nc2nc(NCCCN)cc(Nc3cc(C4CC4)[nH]n3)n2)cc1` (system: PTK2B (Homo sapiens))
Found: 460

---

- Study system: PRKD3 (Homo sapiens, UniProt O94806)
- Construct: endogenous in cells
- Sequence (O94806 whole entry): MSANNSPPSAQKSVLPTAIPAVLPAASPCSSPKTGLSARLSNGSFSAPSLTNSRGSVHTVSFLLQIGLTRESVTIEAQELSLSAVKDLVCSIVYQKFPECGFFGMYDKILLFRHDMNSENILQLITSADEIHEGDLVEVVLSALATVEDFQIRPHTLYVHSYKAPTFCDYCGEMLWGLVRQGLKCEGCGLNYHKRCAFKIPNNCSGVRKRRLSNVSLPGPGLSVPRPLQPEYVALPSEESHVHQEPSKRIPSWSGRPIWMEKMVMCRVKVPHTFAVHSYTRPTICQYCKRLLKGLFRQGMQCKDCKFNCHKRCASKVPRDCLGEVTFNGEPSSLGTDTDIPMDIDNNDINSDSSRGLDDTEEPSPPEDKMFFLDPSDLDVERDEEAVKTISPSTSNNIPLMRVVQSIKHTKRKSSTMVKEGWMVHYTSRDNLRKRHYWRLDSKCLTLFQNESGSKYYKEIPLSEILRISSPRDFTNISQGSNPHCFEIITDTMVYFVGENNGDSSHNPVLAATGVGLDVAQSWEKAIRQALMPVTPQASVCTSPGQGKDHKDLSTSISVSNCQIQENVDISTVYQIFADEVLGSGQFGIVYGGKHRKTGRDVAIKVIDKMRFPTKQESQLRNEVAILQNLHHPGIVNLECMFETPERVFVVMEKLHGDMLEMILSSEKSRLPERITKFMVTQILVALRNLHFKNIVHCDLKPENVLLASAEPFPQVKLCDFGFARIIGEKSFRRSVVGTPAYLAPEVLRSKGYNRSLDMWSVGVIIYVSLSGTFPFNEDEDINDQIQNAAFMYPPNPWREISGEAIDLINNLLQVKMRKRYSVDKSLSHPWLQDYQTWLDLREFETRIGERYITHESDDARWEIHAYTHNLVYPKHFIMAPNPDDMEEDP
- Assay comment: KAM-matrix competition in K562 lysate
- Condition info: read-out: RB50 (the source's name)
Measured metric: IC50 (nM)
Give your result in nM as a bare value.

Lookup: Give the value of IC50 reported for the following: N#CCc1ccc(Nc2nc(NCCCN)cc(Nc3cc(C4CC4)[nH]n3)n2)cc1 [KAM]
Found: 633

Source listed as paper PMC5513037.
